We begin with a simple list: items and their reported polymerase ribozyme fitness (log ratio).
B1: TPR 5TU (parent)
chain: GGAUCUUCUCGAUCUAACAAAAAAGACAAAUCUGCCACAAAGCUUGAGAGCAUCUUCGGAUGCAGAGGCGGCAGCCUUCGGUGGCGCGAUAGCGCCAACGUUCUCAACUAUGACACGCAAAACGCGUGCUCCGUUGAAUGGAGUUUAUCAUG

variants of: B1; experiment: polymerase ribozyme fitness, log enrichment relative to wild type (log ratio); higher = more active; in vitro selection for triplet polymerase activity
Fewer inactive variants are shown than the library holds.
assayMetric: polymerase ribozyme fitness (log ratio)

# mutationNotation, assayMetric, reportedMeasurement
records = [
    ("C8G U13G A40C U77A G94A A97C C99U A113G G117U U139G U144G", "polymerase ribozyme fitness (log ratio)", "≤ -4.2"),
    ("U4A C8U A16U A40C U53A C57U C87A A97U U145G", "polymerase ribozyme fitness (log ratio)", "≤ -4.2"),
    ("G62C G84A C125G G128A", "polymerase ribozyme fitness (log ratio)", "≤ -4.2"),
    ("A20U A26G C27A C36U C93U A147U", "polymerase ribozyme fitness (log ratio)", "≤ -4.2"),
    ("U45A C79G G84C C93G U102G", "polymerase ribozyme fitness (log ratio)", "≤ -4.2"),
    ("U53A C103U", "polymerase ribozyme fitness (log ratio)", -0.534),
    ("G84A G100A A106G A113U G117U C123U A142C", "polymerase ribozyme fitness (log ratio)", "≤ -4.2"),
    ("G50U A73U G84A U109G", "polymerase ribozyme fitness (log ratio)", "≤ -4.2"),
    ("A40U G71U C85G", "polymerase ribozyme fitness (log ratio)", "≤ -4.2"),
    ("G48A A60G G83U G126U U134C", "polymerase ribozyme fitness (log ratio)", -3.58),
    ("C54U G83C C85G A138G", "polymerase ribozyme fitness (log ratio)", "≤ -4.2"),
    ("A40U C114U A121C", "polymerase ribozyme fitness (log ratio)", -2.44),
    ("A47C U53A C85G U139A", "polymerase ribozyme fitness (log ratio)", "≤ -4.2"),
    ("G80U C108G", "polymerase ribozyme fitness (log ratio)", "≤ -4.2"),
    ("G58C C85A", "polymerase ribozyme fitness (log ratio)", -3.71),
    ("C14U C54U", "polymerase ribozyme fitness (log ratio)", -1.87),
    ("C54U U56A G58A C85U C95A", "polymerase ribozyme fitness (log ratio)", -1.2),
    ("C5U A16U C87A A106C", "polymerase ribozyme fitness (log ratio)", "≤ -4.2"),
    ("C10U G25U A40U C79U G84A A142C", "polymerase ribozyme fitness (log ratio)", "≤ -4.2"),
    ("A41C U135C", "polymerase ribozyme fitness (log ratio)", -3.55),
    ("A16C G86C A110G", "polymerase ribozyme fitness (log ratio)", "≤ -4.2"),
    ("A19U G92C", "polymerase ribozyme fitness (log ratio)", -1.68),
    ("C10A A21G A29G C51U A52G U78C C95A A122U U146G", "polymerase ribozyme fitness (log ratio)", "≤ -4.2"),
    ("U15G G152U", "polymerase ribozyme fitness (log ratio)", -2.98),
]
